The measured values listed here are drawn from paper PMC4751939.

assay: MTT cytotoxicity assay; assay type: cell-based; settings: human, HepG2 cells, 48-hour incubation
ENDPOINT LABEL: IC50 at 48 h (µM)
Numbers only, in µM.

CCCCCn1c(=N)n(CC(O)COc2cccc(C)c2)c2ccccc21 (stereo not drawn) [MMV000444]: 4.13

Each of the following entries comes with a recorded value; kindly state IC50 at 48 h for each.
1. COc1ccc(CCN2CCC(CN(C)Cc3cnn(-c4ccccc4)c3)CC2)cc1 [MMV666069]
2. c1ccc(CNc2nc(Nc3ccccc3)nc3ccccc23)cc1 [MMV006169]
3. CCCCN(CCCC)S(=O)(=O)c1ccc(NC(=O)c2ccco2)cc1 [MMV007881]
4. CCOC(=O)c1cn(CC)c2cc(N3CCCCC3)c(F)cc2c1=O [MMV665827]

Resp:
1: 5.82; 2: 5.66; 3: 5.6; 4: 1.72

Req: May I ask what IC50 at 48 h has been recorded for C[n+]1c2ccccc2nc2ccc(NCCO)cc21 [MMV396693] ?
Resp: 5.66

----------
Assay: MTT cytotoxicity assay
Assay type: cell-based
Conditions: human, HepG2 cells, 48-hour incubation
From the text: An 3-(4,5-dimethylthiazol-2-yl)-2,5-diphenyltetrazolium bromide (MTT) cytotoxicity counter assay was used to test all compounds from the MMV Malaria Box for cytotoxicity. […] HepG2 cells cultured in complete MEM were first washed with 1× Hank's Balanced Salt Solution (catalog no. 14175-095, Invitrogen), trypsinized using a 0.25% trypsin/ethylenediaminetetraacetic acid solution (catalog no. 25200-106, Invitrogen), assessed for viability using trypan blue, and resuspended at 250,000 cells/mL. […]
Exercise: for every item that follows, state its recorded IC50 at 48 h.
Answers are plain numbers, in µM.

Cc1c(C)n(Cc2ccc(F)cc2)c2ccc(C(=O)NCc3ccco3)cc12: 3.26

Consider the record given below.
Req: May I ask what IC50 at 48 h has been recorded for Cc1ccccc1OCCSc1nc2ccc(NC(=O)c3cccs3)cc2s1 ?
Resp: 3.5

----------
Experiment: MTT cytotoxicity assay
Type: cell-based
Conditions: human, HepG2 cells, 48-hour incubation
Text: An 3-(4,5-dimethylthiazol-2-yl)-2,5-diphenyltetrazolium bromide (MTT) cytotoxicity counter assay was used to test all compounds from the MMV Malaria Box for cytotoxicity. […] HepG2 cells cultured in complete MEM were first washed with 1× Hank's Balanced Salt Solution (catalog no. 14175-095, Invitrogen), trypsinized using a 0.25% trypsin/ethylenediaminetetraacetic acid solution (catalog no. 25200-106, Invitrogen), assessed for viability using trypan blue, and resuspended at 250,000 cells/mL. […]
ENDPOINT LABEL: IC50 at 48 h

Cc1ccc(Cn2c(N3CCC(C(=O)NCc4cccs4)CC3)nc3ccccc32)cc1 [MMV007564]: > 6.06 µM
O=C(NC(c1ccccc1)c1ccc2cccnc2c1O)c1ccccc1 (stereo not drawn) [MMV666080]: > 6.06 µM

Consider the record given below.
Req: May I ask what IC50 at 48 h has been recorded for O=[N+]([O-])c1ccc(C=NNc2nc3ccccc3[nH]2)cc1 [MMV666607] ?
Resp: > 6.06 µM
